Test system: Influenza A virus
Assay: Antiviral activity against Influenza A virus (A/Korea/KBNP-0028/2000(H9N2)) infected in chicken egg after 5 days by hemagglutinination assay
Type: functional, organism-based
Details: 120 h
pEC50: −log10 of the molar value.
A collection of molecules and their measured pEC50

{"columns": ["Molecule", "pEC50"],
 "data": [
  ["O=C(CCc1ccc(O)c(O)c1)C[C@@H](O)CCc1ccc(O)c(O)c1", "< 3.46"],
  ["COc1cc(/C=C/C(=O)O[C@H]2[C@H](O[C@@H](CCc3ccc(O)c(O)c3)CC(=O)CCc3ccc(O)c(O)c3)OC[C@@H](O)[C@@H]2O)ccc1O", "< 3.46"],
  ["O=C(CCc1ccc(O)cc1)C[C@H](CCc1cccc(O)c1)O[C@@H]1OC[C@@H](O)[C@H](O)[C@H]1O", 4.25],
  ["O=C(CCc1ccc(O)c(O)c1)C[C@H](CCc1ccc(O)c(O)c1)O[C@@H]1OC[C@@H](O)[C@H](O)[C@H]1OC(=O)/C=C/c1ccc(O)cc1", "< 3.46"]
]}

[in] Give its pEC50 value. Item: O=C(/C=C/CCc1ccc(O)c(O)c1)CCc1ccc(O)c(O)c1 [DEHYDROHIRSUTANONOL]
[out] < 3.46

[in] Give its pEC50 value. Item: O=C(CCc1ccc(O)c(O)c1)C[C@H](CCc1cccc(O)c1)O[C@@H]1OC[C@@H](O)[C@H](O)[C@H]1O [ALNUSIDE A]
[out] < 3.46

----------
Experiment: Cytotoxicity against CEF cells by MTT assay
Format: cell-based, Gallus gallus
Conditions: chicken
A collection of molecules and their measured CC50

{"columns": ["Molecule", "Result"],
 "data": [
  ["COc1cc(/C=C/C(=O)O[C@H]2[C@H](O[C@@H](CCc3ccc(O)c(O)c3)CC(=O)CCc3ccc(O)c(O)c3)OC[C@@H](O)[C@@H]2O)ccc1O", "> 500 µM"],
  ["O=C(/C=C/CCc1ccc(O)c(O)c1)CCc1ccc(O)c(O)c1 [DEHYDROHIRSUTANONOL]", "> 500 µM"],
  ["CC(=O)N[C@H]1[C@H]([C@H](O)[C@H](O)CO)OC(C(=O)O)=C[C@@H]1N=C(N)N", "> 753 µM"]
]}

Lab note: next molecule to report on.
[in] Give its CC50 value. Item: "O=C(CCc1ccc(O)c(O)c1)C[C@@H](O)CCc1ccc(O)c(O)c1"
[out] > 500 µM

----------
Experiment: Selectivity index, ratio of CC50 for CEF cells to EC50 for Influenza A virus (A/Korea/KBNP-0028/2000(H9N2))
Assay type: toxicity, cell-based
Conditions: chicken
Result Type: selectivity ratio

{"columns": ["Compound", "Result Type", "Result"],
 "data": [
  ["O=C(CCc1ccc(O)cc1)C[C@H](CCc1cccc(O)c1)O[C@@H]1OC[C@@H](O)[C@H](O)[C@H]1O", "selectivity ratio", "> 10"]
]}

Lab note: next compound to report on.
[in] Give its selectivity ratio value. Item: CC(=O)N[C@H]1[C@H]([C@H](O)[C@H](O)CO)OC(C(=O)O)=C[C@@H]1N=C(N)N [ZANAMIVIR]
[out] > 44

----------
A collection of molecules and their measured CC50
Assay: Cytotoxicity against CEF cells by MTT assay
Assay type: cell-based, Gallus gallus
Conditions: chicken

Known CC50 results, listed for orientation:
{"columns": ["Molecule", "CC50"],
 "data": [
  ["O=C(CCc1ccc(O)cc1)C[C@H](CCc1cccc(O)c1)O[C@@H]1OC[C@@H](O)[C@H](O)[C@H]1O", "> 560 µM"],
  ["O=C(CCc1ccc(O)c(O)c1)C[C@H](CCc1ccc(O)c(O)c1)O[C@@H]1OC[C@@H](O)[C@H](O)[C@H]1OC(=O)/C=C/c1ccc(O)cc1 [OREGONOYL A]", "> 500 µM"]
]}

Lab note: next molecule to report on.
[in] Give its CC50 value. Item: O=C(CCc1ccc(O)c(O)c1)C[C@H](CCc1cccc(O)c1)O[C@@H]1OC[C@@H](O)[C@H](O)[C@H]1O [ALNUSIDE A]
[out] > 500 µM
